// data source = patent US6596718B1

assay.readout: melting point

Would you kindly share the measured melting point for `COc1ccccc1CNC(=O)c1nc2c(OC)ccc(N3CCOCC3)c2s1` ?
186 to 188 °C

Would you kindly share the measured melting point for `COc1ccc(N2CCOCC2)c2sc(C(=O)NCc3csc4ccccc34)nc12` ?
187 to 189 °C

Would you kindly share the measured melting point for COc1ccc(N2CCOCC2)c2sc(C(=O)NC[C@H]3CCCC[C@H]3O)nc12 (stereo in doubt) ?
178 to 180 °C

Would you kindly share the measured melting point for `COc1ccc(N2CCOCC2)c2sc(C(=O)NCCNC(=O)c3ccc(Cl)cc3)nc12` ?
237 to 240 °C

Would you kindly share the measured melting point for `COc1ccc(N2CCOCC2)c2sc(C(=O)NCCc3cccc(C)c3)nc12` ?
119 to 121 °C

Would you kindly share the measured melting point for `COc1ccc(N2CCOCC2)c2sc(C(=O)NCc3ccccc3Cl)nc12` ?
114 to 116 °C

Would you kindly share the measured melting point for `COc1ccc(N2CCOCC2)c2sc(C(=O)NCCc3cccs3)nc12` ?
120 to 121 °C

Would you kindly share the measured melting point for `COc1ccc(N2CCOCC2)c2sc(C(=O)NCCSc3nnc(N)s3)nc12` ?
237 to 239 °C

Would you kindly share the measured melting point for `COc1ccc(N2CCOCC2)c2sc(C(=O)NCCc3ccccc3C)nc12` ?
129 to 131 °C

Would you kindly share the measured melting point for `COc1cccc(NC(=O)c2nc3c(OC)ccc(N4CCOCC4)c3s2)c1` ?
160 °C

Would you kindly share the measured melting point for `COc1ccc(N2CCOCC2)c2sc(C(=O)NCc3ccc4c(c3)OCO4)nc12` ?
190 to 193 °C

Would you kindly share the measured melting point for `COc1ccc(N2CCOCC2)c2sc(C(N)=O)nc12` ?
228 to 230 °C

Would you kindly share the measured melting point for `COc1ccc(N2CCOCC2)c2sc(C(=O)NCc3cccc(F)c3)nc12` ?
152 to 153 °C

Would you kindly share the measured melting point for `COc1ccc(N2CCOCC2)c2sc(C(=O)NCc3cccs3)nc12` ?
174 to 175 °C

Would you kindly share the measured melting point for `COc1ccc(N2CCOCC2)c2sc(C(=O)NCc3cccnc3)nc12` ?
181 to 184 °C

Would you kindly share the measured melting point for `COc1ccc(N2CCOCC2)c2sc(C(=O)NCCCc3ccccc3)nc12` ?
147 °C

Would you kindly share the measured melting point for `COc1ccc(N2CCOCC2)c2sc(C(=O)NCC3CC3)nc12` ?
152 to 153 °C

Would you kindly share the measured melting point for COc1ccc(N2CCOCC2)c2sc(C(=O)NC(C)Cc3cc4ccccc4o3)nc12 (centres unmarked) ?
144 to 146 °C

Would you kindly share the measured melting point for `COc1ccc(N2CCOCC2)c2sc(C(=O)NCCc3ccccc3Cl)nc12` ?
141 to 143 °C

Would you kindly share the measured melting point for `COc1ccccc1C(=O)NCCNC(=O)c1nc2c(OC)ccc(N3CCOCC3)c2s1` ?
180 to 183 °C

Would you kindly share the measured melting point for `COc1ccc(N2CCOCC2)c2sc(C(=O)NCc3ccccc3)nc12` ?
156 to 158 °C

Would you kindly share the measured melting point for `COc1cc(OC)cc(C(=O)NNC(=O)c2nc3c(OC)ccc(N4CCOCC4)c3s2)c1` ?
146 to 148 °C

Would you kindly share the measured melting point for `COc1ccc(N2CCOCC2)c2sc(C(=O)NNC(=O)c3ccccn3)nc12` ?
225 to 226 °C

Would you kindly share the measured melting point for `COc1ccc(N2CCOCC2)c2sc(C(=O)NCC3CCCCC3)nc12` ?
150 to 151 °C

Would you kindly share the measured melting point for `COc1ccc(N2CCOCC2)c2sc(C(=O)NCCCCN3C(=O)c4ccccc4C3=O)nc12` ?
114 to 118 °C

Would you kindly share the measured melting point for `COc1ccc(N2CCOCC2)c2sc(C(=O)Nc3ccccc3)nc12` ?
190 to 191 °C

Would you kindly share the measured melting point for `COc1ccc(N2CCOCC2)c2sc(C(=O)NCCc3cccc(F)c3)nc12` ?
120 to 122 °C

Would you kindly share the measured melting point for `COc1ccc(N2CCOCC2)c2sc(C(=O)NCc3ccc(Cl)cc3)nc12` ?
175 to 176 °C

Would you kindly share the measured melting point for COc1ccc(N2CCOCC2)c2sc(C(=O)NC[C@@H]3CCCC[C@H]3O)nc12 (stereo in doubt) ?
133 to 135 °C
